Readings of IC50 for the listed compounds
measured_target: hROMK (hKir1.1) (Homo sapiens (Human), UniProt P48048)
Sequence (P48048 whole entry): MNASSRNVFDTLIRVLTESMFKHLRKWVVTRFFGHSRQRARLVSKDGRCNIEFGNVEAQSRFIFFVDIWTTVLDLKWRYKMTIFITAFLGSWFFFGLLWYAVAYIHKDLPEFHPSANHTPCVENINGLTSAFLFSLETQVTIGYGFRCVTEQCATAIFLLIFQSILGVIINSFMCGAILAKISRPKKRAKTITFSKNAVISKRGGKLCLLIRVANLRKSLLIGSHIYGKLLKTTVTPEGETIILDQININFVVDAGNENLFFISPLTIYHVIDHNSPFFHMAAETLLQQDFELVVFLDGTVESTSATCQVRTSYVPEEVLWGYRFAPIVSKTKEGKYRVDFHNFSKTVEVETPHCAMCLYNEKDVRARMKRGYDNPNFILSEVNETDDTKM
test_protocol: Thallium Flux Assay (ROMK channel functional thallium flux assay, FLIPR-Tetra)
settings: HEK293 cells stably expressing hROMK

[
  {
    "compound": "CC1=C(N2CCC3(CCN(C[C@H](O)c4ccc5c(c4C)COC5=O)CC3)C2=O)COC1=O [Example 7]",
    "data_value": "20 nM"
  },
  {
    "compound": "Cc1c([C@@H](O)CN2CCC3(CC2)C(=O)N(C2=CC(=O)OC2)c2ccccc23)ccc2c1COC2=O [Example 65]",
    "data_value": "40 nM"
  },
  {
    "compound": "Cc1c([C@@H](O)CN2CCC3(C=CN(C4=CC(=O)OC4)C3=O)CC2)ccc2c1COC2=O [Example 44]",
    "data_value": "40 nM"
  },
  {
    "compound": "CC1=C(N2CCC3(CCN(CC(O)c4ccc5c(c4C4CC4)COC5=O)CC3)C2=O)COC1=O (single isomer, unassigned) [Example 77]",
    "data_value": "240 nM"
  },
  {
    "compound": "CC1=C(N2CCC3(CCN(CC(NCC(F)F)c4ccc5c(c4C)COC5=O)CC3)C2=O)COC1=O (stereo not shown) [Example 55]",
    "data_value": "250 nM"
  },
  {
    "compound": "Cc1c([C@@H](O)CN2CCC3(CC2)CCN(C2=C(Cl)C(=O)OC2)C3=O)ccc2c1COC2=O [Example 25]",
    "data_value": "10 nM"
  }
]

Proceed to the following item.
Ask: Field request: IC50 | item: CC1=C(N2CCC3(CCN(CC(O)c4ccc5c(c4C4CC4)COC5=O)CC3)C2=O)COC1=O (single isomer, unassigned) [Example 76]
Reply: 10 nM

Origin of measurements: patent US9206198B2
